koff: recorded values
- SYSTEM NAME: T1, hK1 (human tissue kallikrein 1), recombinant (human, UniProt P06870 25-262)
- T1 construct: Expressed in P. pastoris from KLK1 cDNA and purified; enzymatically active; also called KLK1; Recombinant (Pichia) Kallikrein
- MEASUREMENT NOTES: SPR
Reply with just the number (in s⁻¹).

BINDER	koff / s⁻¹
M0139-F09 (Fab, V domains shown) VH: EVQLLESGGGLVQPGGSLRLSCAASGFTFSHYVMAWVRQAPGKGLEWVSRIGPSGGYTMYADSVKGRFTISRDNSKNTLYLQMNSLRAEDTAVYYCARVGVWYGMDVWGQGTTVTVSS VL: DIQMTQSPGTLSLSPGERATLSCRASQSVSSSYLAWYQQKPGQAPRLLIYGASSRATGIPDRFSGSGSGTDFTLTISSLQLEDFGTYFCQQSYRSPYTFGQGTKVDIKR	0.00108
M0124-G12 (Fab, V domains shown) VH: EVQLLESGGGLVQPGGSLRLSCAASGFTFSHYWMRWVRQAPGKGLEWVSSIGSSGGMTKYADSVKGRFTISRDNSKNTLYLQMNSLRAEDTAVYYCARALRWRAFDIWGQGTMVTVSS VL: DIQMTQSPSSVSASVGDRVTITCRASQGISSWLAWYQQKPGKAPKLLIYAASSLQSGVPSRFSGSGSGTDFTLTISSLQPEDFATYYCQQANSFPLTFGGGTKVEIKR	0.0064

// next item, koff requested
Incoming: Dear colleague, I am looking for the recorded koff of the following binder: M0134-B03 (Fab, V domains shown) VH: EVQLLESGGGLVQPGGSLRLSCAASGFTFSHYSMFWVRQAPGKGLEWVSSIYPSGGQTDYADSVKGRFTISRDNSKNTLYLQMNSLRAEDTAVYYCARRGLLWSFDSWGQGTLVTVSS VL: AQSALTQPPSASGSPGQSVTISCTGTSSDVGAYNYVSWYQQHPGKAPKLIIYEVNKRPSGVPDRFSASKSGNTASLTVSGLQAEDEADYYCNSYAGSNSLIFGGGTKLTVLG
Outgoing: 0.00096
